test: blocking HSF1-driven luciferase expression – cell-based, NIH3T3, luminescence, primary screen (AID 2098); conditions: NIH3T3-HGL HSE-luciferase, MG132-induced, luminescence 8 h; screened at 7.5 µM (by protocol);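 also: luciferase reports HSF-1 transcriptional activity via heat shock element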
Screen size: about 300,000 compounds; about 2,300 (0.77%) were called active.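 The calls were made as follows: active = more than half of replicate wells show activity change below -50%, luminescence cut by over half; inconclusive = some wells, but at most half, below -50%; inactive = no replicate well below -50%.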 Only a selection was taken, and actives are over-represented in it overall.
Outcomes: Yes (active), No (inactive)

{"MOLECULE": "Cc1ccc(N2CC(C(=O)N3CCC4(CC3)CC(=O)c3ccccc3O4)CC2=O)cc1C (stereo not given)", "ASSIGNED CLASS": "No"}
{"MOLECULE": "Cc1cc(Br)ccc1NC(=O)CN(C)C(=O)CN1C(=O)NC2(CCCC2)C1=O", "ASSIGNED CLASS": "No"}
{"MOLECULE": "COC(=O)c1nc(NC(=O)c2ccc(F)cc2)n[nH]1", "ASSIGNED CLASS": "No"}
{"MOLECULE": "COC(=O)c1nc(NC(=O)c2ccc(Cl)cc2)n[nH]1", "ASSIGNED CLASS": "No"}
{"MOLECULE": "CCOC(=O)CSc1nnc(-c2ccncc2)o1", "ASSIGNED CLASS": "No"}
{"MOLECULE": "CCCCn1c(N)c(N(CC(C)C)C(=O)c2cccc(S(=O)(=O)N3CCN(C(C)=O)CC3)c2)c(=O)[nH]c1=O", "ASSIGNED CLASS": "No"}
{"MOLECULE": "COc1ccc2[nH]c(=O)c(CN(Cc3cccnc3)S(=O)(=O)c3ccccc3F)cc2c1", "ASSIGNED CLASS": "Yes"}
{"MOLECULE": "CCN(C(=O)CSc1nnc(-c2ccncc2)o1)c1ccccc1", "ASSIGNED CLASS": "No"}
{"MOLECULE": "COc1ccccc1CNS(=O)(=O)c1cc2c3c(c1)CCC(=O)N3CCC2", "ASSIGNED CLASS": "No"}
{"MOLECULE": "COC(=O)c1nc(NC(=O)c2ccc(C(C)(C)C)cc2)n[nH]1", "ASSIGNED CLASS": "Yes"}
